Tested system: hTAS2R31 (Homo sapiens)
Sequence (P59538 1-309): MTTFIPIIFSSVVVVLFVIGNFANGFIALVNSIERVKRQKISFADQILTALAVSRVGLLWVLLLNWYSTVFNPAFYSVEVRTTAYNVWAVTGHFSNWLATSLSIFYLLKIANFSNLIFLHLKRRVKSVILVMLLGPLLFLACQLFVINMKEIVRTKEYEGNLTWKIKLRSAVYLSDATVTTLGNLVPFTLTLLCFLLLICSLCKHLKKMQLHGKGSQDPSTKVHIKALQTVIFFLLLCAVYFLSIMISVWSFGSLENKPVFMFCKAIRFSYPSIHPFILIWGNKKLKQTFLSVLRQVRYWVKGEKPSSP
pIC50: −log10 of the molar value.
Recorded endpoint: pIC50

{"Compound": "COc1cc2c(c(O)c1OC)C(=O)C[C@@H](c1ccc(O)cc1)O2 [compound 9, 6-methoxysakuranetin]", "pIC50": 4.99}

[P] COc1cc(-c2cc(=O)c3c(O)c(OC)c(O)cc3o2)ccc1O [compound 10, jaceosidin]
[Q] COc1cc(O)c2c(c1)O[C@H](c1ccc(O)cc1)CC2=O [compound 2, sakuranetin]
Ask | Could you point out whether the larger pIC50 belongs to P or to Q ? // respond with label for picked entry
Reply | Q
